Overview of recorded β-Sheet, aqueous solution for various substances
Bridge positions count the residues as written; N and C are the ends. Ends that are not written are not given here.
Answer format: numeric, % implied, no suffix.

Look over these answered cases.
H-RECKTESNTFPGICITKPPCRKACISEKFTDGHCSKIRRRCLCRRPC-OH (disulfide 3-47, 14-34, 20-41, 24-43) :: 30.7
RECKTESNTFPGICITKPPCRKACISEKFTDGHCSKILRRCLCTKPC (disulfide 3-47, 14-34, 20-41, 24-43) [NaD1] :: 35.4
H-RECKTESNTFPGICITKPPCRKACISEKFTDGHCSKILRRCLCRRPC-OH (disulfide 3-47, 14-34, 20-41, 24-43) :: 29.8
H-RECKTESNTFPGICITKPPCRKACISEKFTDGHCSKIRRRCLCTKPC-OH (disulfide 3-47, 14-34, 20-41, 24-43) :: 34.3
H-RECKTESNTFPGICITKPPCRKACISEKFTDGHCSRIRRRCLCTKPC-OH (disulfide 3-47, 14-34, 20-41, 24-43) :: 36.8

We next turn to a different substance, shown below.
In plain terms, RECKTESNTFPGICITKPPCRKACISEKFTDGHCRGFRRRCLCTKPC (disulfide 3-47, 14-34, 20-41, 24-43) [NaD1-L5] has a documented β-Sheet, aqueous solution of 22.9

====

Bridge positions count the residues as written; N and C are the ends. Ends that are not written are not given here.
attributeMeasured: Random, aqueous solution

Look over these answered cases.
H-RECKTESNTFPGICITKPPCRKACISEKFTDGHCSRIRRRCLCTKPC-OH (disulfide 3-47, 14-34, 20-41, 24-43) :: 35.6%
H-RECKTESNTFPGICITKPPCRKACISEKFTDGHCSKIRRRCLCRRPC-OH (disulfide 3-47, 14-34, 20-41, 24-43) :: 37.7%
RECKTESNTFPGICITKPPCRKACISEKFTDGHCRGFRRRCLCTKPC (disulfide 3-47, 14-34, 20-41, 24-43) [NaD1-L5] :: 39.3%
H-RECKTESNTFPGICITKPPCRKACISEKFTDGHCSKILRRCLCRRPC-OH (disulfide 3-47, 14-34, 20-41, 24-43) :: 38.9%
H-RECKTESNTFPGICITKPPCRKACISEKFTDGHCSKIRRRCLCTKPC-OH (disulfide 3-47, 14-34, 20-41, 24-43) :: 36.2%

We next turn to a different substance, shown below.
In plain terms, RECKTESNTFPGICITKPPCRKACISEKFTDGHCSKILRRCLCTKPC (disulfide 3-47, 14-34, 20-41, 24-43) [NaD1] has a documented Random, aqueous solution of 35.8%

====

Bridge positions count the residues as written; N and C are the ends. Ends that are not written are not given here.
attributeMeasured: α-Helix, aqueous solution
Kindly write the number and append the unit.

Look over these answered cases.
H-RECKTESNTFPGICITKPPCRKACISEKFTDGHCSRIRRRCLCTKPC-OH (disulfide 3-47, 14-34, 20-41, 24-43) :: 5.6%
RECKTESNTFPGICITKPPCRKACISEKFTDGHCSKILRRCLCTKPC (disulfide 3-47, 14-34, 20-41, 24-43) [NaD1] :: 7.5%
H-RECKTESNTFPGICITKPPCRKACISEKFTDGHCSKILRRCLCRRPC-OH (disulfide 3-47, 14-34, 20-41, 24-43) :: 7.6%
H-RECKTESNTFPGICITKPPCRKACISEKFTDGHCSKIRRRCLCRRPC-OH (disulfide 3-47, 14-34, 20-41, 24-43) :: 8.9%
H-RECKTESNTFPGICITKPPCRKACISEKFTDGHCSKIRRRCLCTKPC-OH (disulfide 3-47, 14-34, 20-41, 24-43) :: 8.3%

We next turn to a different substance, shown below.
In plain terms, RECKTESNTFPGICITKPPCRKACISEKFTDGHCRGFRRRCLCTKPC (disulfide 3-47, 14-34, 20-41, 24-43) [NaD1-L5] has a documented α-Helix, aqueous solution of 13.5%

Values from paper PMC12649408
